# System: SK-MEL-2 melanoma
# Protocol Summary: NCI-60 one-dose screen, 48 h (100 = growth as untreated, 0 = no growth, -100 = all killed)
# Measurement Parameters: 10 µM unless noted
Compounds without any hit were thinned out: in the full panel of roughly 83,000, 20% have a hit.
Measured Property: growth (%)
Response body: numeric value in %, unit text excluded.

// worked examples, growth included
Compound | System | growth (%)
Cc1c(Cl)cccc1NC(=O)c1sc2nc3c(cc2c1N)CN(Cc1ccccc1)CC3 | SK-MEL-2 melanoma | 31.4
NCCCn1c2c(c3cc(-c4ccn[nH]4)ccc3c1=O)C(=O)c1ccccc1-2 | SK-MEL-2 melanoma | 105
Cc1nccc2c3ccc(OCc4cn(-c5ccc(Cl)cc5)nn4)cc3n(CC(C)C)c12 | SK-MEL-2 melanoma | 20.7

**Query** Using the record for NS(=O)(=O)c1ccc(C2C3=C(CCCC3=O)OC3=C2C(=O)c2ccccc2C3=O)cc1 (stereo not given) , report its growth.
**Result** -74

**Query** What value of growth has been reported for the following compound? `O=C(CCc1nnco1)c1nc2ccc([N+](=O)[O-])cc2[nH]1`
**Result** 94.7

---

Each item that follows carries a reported growth.
# System: NCI-H322M lung
# Protocol Summary: NCI-60 one-dose screen, 48 h (100 = growth as untreated, 0 = no growth, -100 = all killed)
# Measurement Parameters: 10 µM unless noted
The panel holds about 83,000 compounds, 20% with a hit somewhere; the sample as a whole holds those more often.
The answer is to be given in %; state only the numeric part.

Recorded results for 3 compounds are shown here.
Compound | growth / %
Cn1c2c(c3ccc(-c4ccn[nH]4)cc3c1=O)C(=O)c1ccccc1-2 | 87.3
CCOC(=O)c1c(C)nc2c(c1N)/C(=C/c1ccccn1)C(=O)N2Cc1ccccc1 | 62.7
Oc1ccc(CNNc2ccnc3c(O)cccc23)c2cccnc12 | 47.8

**Query** What value of growth has been recorded for this entry: COc1cc(C(C)c2ccc3c(ccn3C)c2)cc(OC)c1OC (centres undefined)
**Result** 42.8

**Query** Would you kindly share the measured growth for `C=C(C)[C@@H]1CC[C@]2(C(=O)OCCOCCOCC[P+](c3ccccc3)(c3ccccc3)c3ccccc3)CC[C@]3(C)[C@H](CC[C@@H]4[C@@]5(C)CC[C@H](OC(=O)C(Cl)Cl)C(C)(C)[C@@H]5CC[C@]43C)[C@@H]12` ?
**Result** 21

**Query** Endpoint output: growth of `COc1cc(NCC(=O)Nc2cc(Nc3ccc(C)cc3)ncn2)c(Cl)c(OC)c1Cl` . Value?
**Result** 84.8

**Query** # get_value(readout='growth', item= `N#Cc1c(-c2ccc(Cl)cc2)cc(-c2cc3ccccc3o2)nc1SCC(=O)c1ccc(Cl)cc1` )
**Result** 104

**Query** Fill blank: measured growth of the compound `COc1cc(/C=C/C(=O)/C=C/c2cc3ccc(Cl)cc3n(Cc3ccccc3)c2=O)ccc1O` is ____.
**Result** 23.9

**Query** Item under review: `N#CCNc1ccc(C(=O)O)cc1` . Reported growth?
**Result** 114

**Query** Recorded growth of `CC(/C=C/c1ccccc1)=N/NC(=O)c1ccncc1` , please.
**Result** 99.7

**Query** Entry `COc1cc(NCC(=O)Nc2cc(Nc3cccc(C(F)(F)F)c3)ncn2)c(Cl)c(OC)c1Cl` : reported growth = ?
**Result** 101

**Query** Could you tell me which growth is on file for `COC(=O)c1cncc(C(=O)Nc2ccc(-n3cnc4ccccc43)cc2)c1` ?
**Result** 95.6

**Query** Find the recorded growth belonging to `CN1CCN(CC#CCOC(=O)CNC(=O)[C@]23CCC(C)(C)C[C@H]2C2=CC[C@@H]4[C@@]5(C)CC[C@H](O)C(C)(C)[C@@H]5CC[C@@]4(C)[C@]2(C)CC3)CC1` and report it.
**Result** 94.2

**Query** Entry COc1ccc2c(c1)Oc1nc(N)c(C#N)c(N)c1C2Sc1ccc(SC)cc1 (centres undefined) has what growth?
**Result** 77.4

**Query** Recorded growth of CCCCC1=c2c([nH]c3ccc(OC)cc23)=NC2C=CC=NC12 (centres undefined) , please.
**Result** 86.1

**Query** Query (compound): `CCCCCOC(=O)c1ccccc1O` ; field requested: growth
**Result** 101

**Query** Item `CCn1cc(C(=O)O)c(=O)c2cc(F)c(N3CCN(CC(=O)Nc4ccc(/C(C)=N/OC)cc4)CC3)cc21` has what recorded growth?
**Result** 80.2

**Query** Look up growth: `COC(=O)CCc1cc(O)c2c(c1)[C@@H](C(=O)OC)[C@H](c1ccc(O)c(O)c1)O2`
**Result** 98.3

**Query** Give its growth value. Item: `O=S(=O)(O)c1ccc(N=NSc2ccc3ccccc3c2)cc1`
**Result** 92.8

---

# Tested on: NCI-H322M lung
# Protocol Summary: NCI-60 one-dose screen, 48 h
# Measurement Parameters: 10 µM unless noted
About 83,000 compounds went through this panel and 20% of them were active in at least one assay; those are over-represented in the sample as a whole. Activity calls are given as the source filed them. How the source made its calls: active means growth percent below 10; inactive means the rest.
A correct response names exactly one class from True (active), False (inactive)

**Query** Give the logged outcome of this assay for the following compound: `CCCCn1c(=O)c(/C=C/C(=O)/C=C/c2ccc(O)c(OC)c2)cc2ccc(Cl)cc21`
**Result** False

**Query** What call does the record list for `CN1C(=O)c2cc(Cl)nc3c(NC(=O)c4cccc(Cl)c4)c(Cl)c(NC(=O)c4cccc(Cl)c4)c1c23` ?
**Result** False

**Query** # lookup: test call for `COc1cc(NC(=O)Nc2cnc(Nc3ccc(N4CCOCC4)cc3)nc2Oc2ccc(F)cc2)cc(OC)c1`
**Result** False

**Query** Tell me the assay call for `Nc1ccc2c(c1)C(=O)C(=O)c1c-2nc2ccccn12` please.
**Result** True

**Query** GET /call?item= `CCCCn1c(=O)c(/C=C/C(=O)/C=C/c2cc3ccccc3n(CCCC)c2=O)cc2ccccc21` returns the recorded outcome of this test.
**Result** False

**Query** Write down the call the test reported for this compound. Item: `O=C1c2ccccc2C(=O)c2c1oc1c2c(=O)[nH]c2ccccc21`
**Result** False

**Query** State the result this test recorded for `C=C(C)[C@@H]1CC[C@]2(C(N)=O)CC[C@]3(C)[C@H](CC[C@@H]4[C@@]5(C)CCCNC(C)(C)[C@@H]5CC[C@]43C)[C@@H]12` .
**Result** False

**Query** Any idea what this test logged for `Cc1c(Cl)cccc1NC(=O)c1sc2nc3c(cc2c1N)CCCCCC3` ?
**Result** False

**Query** # fetch the recorded call for O=C1NC(c2ccc(F)cc2)N=C2C(c3ccccc3)=NOC12 (stereo not given) here
**Result** False

**Query** Give the logged outcome of this assay for the following compound: `Nc1ccccc1NS(=O)(=O)c1ccc(Cl)cc1`
**Result** False

---

# Test system: IGROV1 ovarian
# Protocol Summary: NCI-60 one-dose screen, 48 h (100 = growth as untreated, 0 = no growth, -100 = all killed)
# Measurement Parameters: 10 µM unless noted
Compounds without any hit were thinned out: in the full panel of roughly 83,000, 20% have a hit.
Entries and their growth values follow.
Please give a number only; it is taken to be in %.

**Query** Requested read-out: growth. Entry: `Sc1cccc2cccnc12`
**Result** 36.9

---

# System: OVCAR-3 ovarian
# Protocol Summary: NCI-60 one-dose screen, 48 h (100 = growth as untreated, 0 = no growth, -100 = all killed)
# Measurement Parameters: 10 µM unless noted
The panel holds about 83,000 compounds, 20% with a hit somewhere; the sample as a whole holds those more often.
Output 1 (yes) for growth not less than 20%; output 0 (no) otherwise.

These solved cases illustrate the format of a correct answer.
Structure | System | Discrete Label
COC(=O)/C=C1\SC(=Nc2ccc(F)cc2)N(CCc2c[nH]c3ccccc23)C1=O | OVCAR-3 ovarian | 1 (yes)
N#Cc1c(-c2ccc(Cl)cc2)cc(-c2cc3ccccc3o2)nc1SCC(=O)c1ccc(Cl)cc1 | OVCAR-3 ovarian | 1 (yes)
O=S(=O)(O)c1ccc(N=NSc2ccc3ccccc3c2)cc1 | OVCAR-3 ovarian | 1 (yes)
CCOC(=O)/C=C1\SC(=Nc2ccc(C#N)cc2)N(CCN2C(=O)/C(=C/C(=O)OCC)SC2=Nc2ccc(C#N)cc2)C1=O | OVCAR-3 ovarian | 0 (no)

**Query** Test whether the molecule `C(=C\c1cn(-c2ccccc2)nc1-c1ccccc1)/c1nnc(-c2c[nH]c3ccccc23)o1` records growth of 20% or higher.
**Result** 1 (yes)

**Query** Please indicate if the recorded growth for `CC(=O)O[C@@H]1C[C@]2(C)[C@H]3[C@H](O)C[C@@H]4C5=CC(C)(C)CC[C@]5(C)CC[C@@]4(C)[C@]3(C)CC[C@H]2C(C)(C)[C@H]1O` meets or exceeds 20%.
**Result** 1 (yes)

**Query** Determine whether this molecule has growth no lower than 20%: `O=C1C(=O)c2c(nc3ccc(C(F)(F)F)cn23)-c2ccccc21`
**Result** 0 (no)

**Query** Is growth at least 20%? Consider `COc1ccc(C(=O)c2cc(OC)c(OC)c(OC)c2)cc1OC(=O)C(Cl)(Cl)Cl`
**Result** 0 (no)
